Attribution: the supplement of paper PMC10567573

B1: CIB1 (parent)
chain: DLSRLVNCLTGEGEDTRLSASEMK

- Variants of: B1
- testDetails: protein stability index of a GFP-peptide fusion (GPS, HEK-293T) (PSI 1-6); higher = more stable;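 further: lentivirally expressed fusions sorted by FACS into six bins by GFP to DsRed ratio, PSI derived from sequencing read proportions per bin multiplied by bin number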
- conditionParameters: c terminus: a fixed tail appended
I would appreciate it if you labelled entries T when protein stability index is 3 or higher, otherwise F.

seqText: DLSRLVNCMTGEGEDTRLSASEMK [L9M]
labelValue: T

seqText: DLSRLVNCLTGEGEDTRLSADEMK [S21D]
labelValue: T

In: In plain terms: is recorded protein stability index at least 3 for DLSRLVNCLTGDGEDTRLSASEMK [E12D] ?
Out: F

In: Okay, and DLSRLCNCLTGEGEDTRLSASEMK [V6C] ?
Out: T

In: Okay, and DLSRLVNCLTGEGEDTRLSASEYK [M23Y] ?
Out: F

In: Okay, and DISRLVNCLTGEGEDTRLSASEMK [L2I] ?
Out: F

In: Okay, and DLSRLDNCLTGEGEDTRLSASEMK [V6D] ?
Out: T

In: Okay, and DLSRLVNCLTGEGPDTRLSASEMK [E14P] ?
Out: F
